System: NCI-H460
Experiment: Antiproliferative activity against human H460 cells after 48 to 72 hrs by MTT assay
Assay type: functional, cell-based
pIC50: −log10 of the molar value.
propertyMeasured: pIC50

1) O=C(N/N=C/c1cccc(OCc2ccc(Cl)cc2)c1)c1cc2c(cn1)[nH]c1ccccc12 : 5.30
2) O=C(N/N=C/c1ccc2ccccc2c1)c1cc2c(cn1)[nH]c1ccccc12 : 5.24

[I] O=C(N/N=C/c1cccc(OCc2ccc([N+](=O)[O-])cc2)c1)c1cc2c(cn1)[nH]c1ccccc12
[II] Cc1ccc(COc2cccc(/C=N/NC(=O)c3cc4c(cn3)[nH]c3ccccc34)c2)cc1
Problem: Between I and II , which one has the lower reported pIC50 value? Your answer should be the label of the entry you select.
Result: II

[P] O=C(N/N=C/c1cccc(OCc2ccccc2F)c1)c1cc2c(cn1)[nH]c1ccccc12
[Q] COc1ccc(COc2cccc(/C=N/NC(=O)c3cc4c(cn3)[nH]c3ccccc34)c2)cc1
Problem: Between P and Q , which one has the lower reported pIC50 value? Your answer should be the label of the entry you select.
Result: Q
(Q: 5.55, P: 5.87)

[1] O=C(N/N=C/c1cccc(OCc2ccccc2)c1)c1cc2c(cn1)[nH]c1ccccc12
[2] O=C(N/N=C/c1ccc(-c2ccccc2)cc1)c1cc2c(cn1)[nH]c1ccccc12
[3] COC(=O)c1ccc(COc2cccc(/C=N/NC(=O)c3cc4c(cn3)[nH]c3ccccc34)c2)cc1
Problem: Task field, ranking: reported pIC50, descending order. Enter labels, ranked according to the request.
Result: 3, 2, 1
(3: 5.93, 2: 5.44, 1: 5.19)

[a] O=C(N/N=C/c1cccc(OCc2ccc(C(F)(F)F)cc2)c1)c1cc2c(cn1)[nH]c1ccccc12
[b] O=C(N/N=C/c1cccc(OCc2ccc(Br)cc2)c1)c1cc2c(cn1)[nH]c1ccccc12
[c] O=C(N/N=C/c1cccc(OCc2ccccc2Cl)c1)c1cc2c(cn1)[nH]c1ccccc12
Problem: Exam item: list the entries in increasing order of pIC50. Enter labels, ranked according to the request.
Result: a, b, c
(a: 5.13, b: 5.62, c: 5.90)
